Listed here: items and their measured pIC50.
target: KRAS G12C (Homo sapiens, UniProt P01116, G12C); experiment: GDP-GTP exchange assay (fluorescence based guanine nucleotide exchange, bodipy-GDP for GppNHp, SOS1); conditions: bodipy-loaded KRAS G12C, 2 hours pre-incubation with inhibitor, read-out: G12C_exchange (KRAS_G12C exchange assay IC50)
Sequence (P01116 1-188 isoform P01116-2 G12C): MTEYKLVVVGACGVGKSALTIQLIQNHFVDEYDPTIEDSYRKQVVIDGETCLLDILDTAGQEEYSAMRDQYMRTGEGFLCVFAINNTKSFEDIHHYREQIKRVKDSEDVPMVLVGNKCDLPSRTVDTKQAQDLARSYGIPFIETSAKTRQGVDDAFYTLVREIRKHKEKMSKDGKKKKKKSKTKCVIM
pIC50: −log10 of the molar value.

>  <query smiles>
C=CC(=O)N1CC(F)(Cn2c(=O)c(=O)n(-c3c(C)ccnc3C(C)C)c3nc(-c4ccccc4Cl)c(Cl)cc32)C1

>  <pIC50>
≥ 7.00

$$$$
>  <query smiles>
C=CC(=O)N1CC(F)(Cn2c(=O)c(=O)n(-c3c(C)ccnc3C(C)C)c3nc(-c4c(Cl)cccc4CO)c(Cl)cc32)C1

>  <pIC50>
≥ 7.00

$$$$
>  <query smiles>
C=CC(=O)N1CC(F)(Cn2c(=O)c(=O)n(-c3c(C)ccnc3C(C)C)c3nc(-c4cccc(Cl)c4Cl)c(Cl)cc32)C1

>  <pIC50>
≥ 7.00

$$$$
>  <query smiles>
C=CC(=O)N1CC(F)(Cn2c(=O)c(=O)n(-c3c(C(C)C)cccc3C(C)C)c3nc(-c4c(N)cccc4F)c(Cl)cc32)C1

>  <pIC50>
≥ 7.00

$$$$
>  <query smiles>
C=CC(=O)N1CC(F)(Cn2c(=O)c(=O)n(-c3c(C)ccnc3C(C)C)c3nc(-c4c(C)ccc5cn[nH]c45)c(Cl)cc32)C1

>  <pIC50>
≥ 7.00

$$$$
>  <query smiles>
C=CC(=O)N1CC(F)(Cn2c(=O)c(=O)n(-c3c(C)ccnc3C(C)C)c3nc(-c4cccnc4N)c(Cl)cc32)C1

>  <pIC50>
6.00 to 7.00

$$$$
>  <query smiles>
C=CC(=O)N1CC(Cn2c(=O)c(=O)n(-c3c(C(C)C)cccc3C(C)C)c3nc(-c4cccc(F)c4F)c(Cl)cc32)(OC)C1

>  <pIC50>
6.00 to 7.00

$$$$
>  <query smiles>
C=CC(=O)N1CC(F)(Cn2c(=O)c(=O)n(-c3c(C)ccnc3C(C)C)c3nc(-c4c(F)ccc(F)c4O)c(Cl)cc32)C1

>  <pIC50>
≥ 7.00

$$$$
>  <query smiles>
C=CC(=O)N1CC(Cn2c(=O)c(=O)n(-c3c(C(C)C)cccc3C(C)C)c3nc(-c4ccccc4F)c(Cl)cc32)(OC)C1

>  <pIC50>
6.00 to 7.00

$$$$
>  <query smiles>
C=CC(=O)N1CC(F)(Cn2c(=O)c(=O)n(-c3c(C(C)C)cccc3C(C)C)c3nc(-c4c(O)ccc(F)c4F)c(Cl)cc32)C1

>  <pIC50>
≥ 7.00

$$$$
>  <query smiles>
C=CC(=O)N1CC(F)(Cn2c(=O)c(=O)n(-c3c(C)ccnc3C(C)C)c3nc(-c4c(O)cccc4C(F)(F)F)c(Cl)cc32)C1

>  <pIC50>
≥ 7.00

$$$$
>  <query smiles>
C=CC(=O)N1CC(Cn2c(=O)c(=O)n(-c3c(C)ccnc3C(C)C)c3nc(-c4c(O)ccc(F)c4F)c(Cl)cc32)(OC)C1

>  <pIC50>
6.00 to 7.00

$$$$
>  <query smiles>
C=C(F)C(=O)N1CC(F)(Cn2c(=O)c(=O)n(-c3c(C(C)C)cccc3C(C)C)c3nc(-c4c(O)cccc4F)c(Cl)cc32)C1

>  <pIC50>
≥ 7.00

$$$$

====

biological target: KRAS G12C (Homo sapiens, UniProt P01116, G12C); experiment: GDP-GTP exchange assay (fluorescence based guanine nucleotide exchange, bodipy-GDP for GppNHp, SOS1); conditions: bodipy-loaded KRAS G12C, 2 hours pre-incubation with inhibitor, read-out: G12C_exchange (KRAS_G12C exchange assay IC50)
pIC50: −log10 of the molar value.
Listed here: items and their measured pIC50.
readout kind: pIC50

>  <molecule>
C=CC(=O)N1CC(F)(Cn2c(=O)c(=O)n(-c3c(C)ccnc3C(C)C)c3nc(-c4c(O)cc(C)cc4F)c(Cl)cc32)C1 [Example 20]

>  <readout kind>
pIC50

>  <reading>
≥ 7.00

$$$$
>  <molecule>
[2H]C([2H])(n1c(=O)c(=O)n(-c2c(C)ccnc2C(C)C)c2nc(-c3ccccc3-c3ccccc3)c(Cl)cc21)C1(F)CN(C(=O)C=C)C1 [Example 55]

>  <readout kind>
pIC50

>  <reading>
6.00 to 7.00

$$$$
>  <molecule>
C=CC(=O)N1CC(F)(Cn2c(=O)c(=O)n(-c3c(C)ccnc3C(C)C)c3nc(-c4ccccc4F)c(Cl)cc32)C1 [Example 18]

>  <readout kind>
pIC50

>  <reading>
≥ 7.00

$$$$
>  <molecule>
C=CC(=O)N1CC(F)(Cn2c(=O)c(=O)n(-c3c(C)ccnc3C(C)C)c3nc(-c4c(Cl)ccc5c4OCO5)c(Cl)cc32)C1 [Example 60]

>  <readout kind>
pIC50

>  <reading>
≥ 7.00

$$$$
>  <molecule>
C=CC(=O)N1CC(F)(Cn2c(=O)c(=O)n(-c3c(C)ccnc3C(C)C)c3nc(-c4c(C)cccc4OC)c(Cl)cc32)C1 [Example 58]

>  <readout kind>
pIC50

>  <reading>
≥ 7.00

$$$$
>  <molecule>
C=CC(=O)N1CCC(n2c(=O)c(=O)n(-c3c(CC)cccc3CC)c3nc(-c4c(O)cccc4F)c(Cl)cc32)CC1 [Example 2]

>  <readout kind>
pIC50

>  <reading>
5.30 to 6.00

$$$$
>  <molecule>
C=CC(=O)N1CC(F)(Cn2c(=O)c(=O)n(-c3c(C)ccnc3C(C)C)c3nc(-c4ccccc4C(F)(F)F)c(Cl)cc32)C1 [Example 37]

>  <readout kind>
pIC50

>  <reading>
≥ 7.00

$$$$
>  <molecule>
[2H]C([2H])(n1c(=O)c(=O)n(-c2c(C)ccnc2C(C)C)c2nc(-c3cccc4ccccc34)c(Cl)cc21)C1(F)CN(C(=O)C=C)C1 [Example 53]

>  <readout kind>
pIC50

>  <reading>
≥ 7.00

$$$$
>  <molecule>
C=CC(=O)N1CC(O)(Cn2c(=O)c(=O)n(-c3c(C)ccnc3C(C)C)c3nc(-c4c(F)ccc(F)c4O)c(Cl)cc32)C1 [Example 44]

>  <readout kind>
pIC50

>  <reading>
6.00 to 7.00

$$$$
>  <molecule>
C=CC(=O)N1CC(F)(Cn2c(=O)c(=O)n(-c3c(C)ccnc3C(C)C)c3nc(-c4cccc5ccc(=O)[nH]c45)c(Cl)cc32)C1 [Example 32]

>  <readout kind>
pIC50

>  <reading>
6.00 to 7.00

$$$$
>  <molecule>
C=CC(=O)N1CC(F)(Cn2c(=O)c(=O)n(-c3c(C(C)C)ccnc3C(C)C)c3nc(-c4c(O)cccc4Cl)c(Cl)cc32)C1 [Example 61]

>  <readout kind>
pIC50

>  <reading>
≥ 7.00

$$$$
>  <molecule>
[2H]C([2H])(n1c(=O)c(=O)n(-c2c(C)ccnc2C(C)C)c2nc(-c3cncc(C)c3C)c(Cl)cc21)C1(F)CN(C(=O)C=C)C1 [Example 52]

>  <readout kind>
pIC50

>  <reading>
5.30 to 6.00

$$$$
>  <molecule>
C=CC(=O)N1CC(F)(Cn2c(=O)c(=O)n(-c3c(C)ccnc3C(C)C)c3nc(-c4c(Cl)cccc4OC)c(Cl)cc32)C1 [Example 57]

>  <readout kind>
pIC50

>  <reading>
≥ 7.00

$$$$
>  <molecule>
C=CC(=O)N1CC(F)(Cn2c(=O)c(=O)n(-c3c(C)ccnc3C(C)C)c3nc(-c4c(N)cccc4F)c(Cl)cc32)C1 [Example 19]

>  <readout kind>
pIC50

>  <reading>
≥ 7.00

$$$$
>  <molecule>
C=CC(=O)N1CC(Cn2c(=O)c(=O)n(-c3c(C(C)C)cccc3C(C)C)c3nc(-c4cccc5ccccc45)c(Cl)cc32)C1 [Example 6]

>  <readout kind>
pIC50

>  <reading>
5.30 to 6.00

$$$$
>  <molecule>
C=CC(=O)N1CC(O)(Cn2c(=O)c(=O)n(-c3c(C)ccnc3C(C)C)c3nc(-c4c(O)cc(C)cc4F)c(Cl)cc32)C1 [Example 46]

>  <readout kind>
pIC50

>  <reading>
6.00 to 7.00

$$$$
>  <molecule>
C=CC(=O)N1CC(F)(Cn2c(=O)c(=O)n(-c3c(C)ccnc3C(C)C)c3nc(-c4cccc(C)c4F)c(Cl)cc32)C1 [Example 34]

>  <readout kind>
pIC50

>  <reading>
≥ 7.00

$$$$
>  <molecule>
C=CC(=O)N1CC(Cn2c(=O)c(=O)n(-c3c(C(C)C)cccc3C(C)C)c3nc(-c4ccccc4F)c(Cl)cc32)C1 [Example 3]

>  <readout kind>
pIC50

>  <reading>
6.00 to 7.00

$$$$
>  <molecule>
C=CC(=O)N1CC(F)(Cn2c(=O)c(=O)n(-c3c(C)ccnc3C(C)C)c3nc(-c4cccc5c(C)n[nH]c45)c(Cl)cc32)C1 [Example 27]

>  <readout kind>
pIC50

>  <reading>
6.00 to 7.00

$$$$
